# STUDY_TARGET: human muscarinic M2 receptor (Homo sapiens)
# TEST_METHOD_NOTES: Alphascreen Surefire phospho-ERK1/2 functional assay, M2
# Assay type: cell-based
# ASSAY_SETUP: CHO, read-out: % Emax cf. ACh (M2)
OUTCOME_MEASURE: Emax (%)

Reference set, count: 2
CCOC(=O)C1C2CN(C3CC4(CCN(C(=O)OCC)C4)C3)CC21 (mixture of isomers) [2-1 Mixture of isomers] | 7
CCOC(=O)[C@H]1[C@@H]2CN(C3CC4(C3)CN(C(=O)OCC)C4)C[C@@H]21 | 12

A = CCOC(=O)N1CCC2(CC(N3C[C@@H]4[C@H](C3)[C@H]4c3ccnn3C)C2)C1 (single isomer, unassigned) [2-29 Isomer 2]
B = CCOC(=O)N1CCC2(CC(N3CC4C(C3)C4C(=O)N3CCC34CC4)C2)C1 (single isomer, unassigned) [2-19 Isomer 2]
C = CCOC(=O)N1CCC2(CC(N3CC4C(C3)C4C(CC)=NOC)C2)C1 (single isomer, unassigned) [2-25 Isomer 4]
D = CCOC(=O)N1CCC2(CC(N3CC4C(C3)C4OC(C)c3ccccc3)C2)C1 (single isomer, unassigned) [2-28 Isomer 2]
Task: Ordering criterion: Emax; begin with the maximum. List each label, following the requested order.
Result: A, C, B, D

---

# STUDY_TARGET: human muscarinic M4 receptor (Homo sapiens, UniProt P08173)
# Construct: expressed in transfected cells
# TEST_METHOD_NOTES: Alphascreen Surefire phospho-ERK1/2 functional assay, M4
# Format: cell-based
# ASSAY_SETUP: CHO cells stably expressing human M4; agonist 5 min, 37° C.
OUTCOME_MEASURE: pEC50 M4

CCOC(=O)C1C2CN(C3CC4CCC(C3)N4C(=O)OCC)CC21 (single isomer, unassigned; isomer 2) [7-1 Isomer 2] | 5.80
COC(=O)N1C2COCC1CC(N1CC3C(C1)C3C(=O)N1CCCCC1)C2 (single isomer, unassigned; isomer 2) [10-12 Isomer 2] | 4.85
CCOC(=O)N1C2COCC1CC(N1CC3C(C1)C3C(=O)N1CCOCC1)C2 (single isomer, unassigned; isomer 2) [10-13 Isomer 2] | 4.99
CCOC(=O)N1C2CCCC1CC(N1CC3C(C1)C3C(=O)N(CC)CC)C2 (single isomer, unassigned; isomer 1) [9-2 Isomer 1] | 5.87
CCOC(=O)N1C2COCC1CC(N1CC3C(C1)C3C(=O)N(C)C1CC1)C2 (single isomer, unassigned; isomer 2) [10-8 Isomer 2] | 5.67
CCN(C(=O)C1C2CN(C3CC4COCC(C3)N4C(=O)OC)CC21)C(C)C (single isomer, unassigned; isomer 1) [10-7 Isomer 1] | 6.79
CCOC(=O)N1C2CCC1CC(N1CC3C(C1)C3C(=O)N(CC)CC)C2 (single isomer, unassigned; isomer 1) [7-3 Isomer 1] | 5.58
CCOC(=O)N1C2CCC1CC(N1CC3C(CN(CC)C(C)=O)C3C1)C2 (single isomer, unassigned; isomer 2) [7-5 Isomer 2] | 6.13
CCN(C(=O)C1C2CN(C3CC4COCC(C3)N4C(=O)OC)CC21)C(C)C (single isomer, unassigned; isomer 2) [10-7 Isomer 2] | 6.23
CCOC(=O)N1C2COCC1CC(N1CC3C(C1)C3C(=O)N(CC)CC)C2 (single isomer, unassigned; isomer 2) [10-2 Isomer 2] | 6.04
COC(=O)N1C2COCC1CC(N1CC3C(C1)C3C(=O)N(C)C(C)C)C2 (single isomer, unassigned; isomer 1) [10-5 Isomer 1] | 5.91
COC(=O)N1C2COCC1CC(N1CC3C(C1)C3C(=O)N(C)C(C)C)C2 (single isomer, unassigned; isomer 2) [10-5 Isomer 2] | 4.90
CCN(CC)C(=O)C1C2CN(C3CC4CCCC(C3)N4C(=O)OC)CC21 (single isomer, unassigned; isomer 1) [9-3 Isomer 1] | 6.12
CCOC(=O)N1C2CCC1CC(N1CC3C(C1)C3c1csc(C)n1)C2 (single isomer, unassigned; isomer 2) [7-6 Isomer 2] | 6.21

---

# STUDY_TARGET: human muscarinic M4 receptor (Homo sapiens)
# Construct: expressed in transfected cells
# Sequence (P08173 1-479): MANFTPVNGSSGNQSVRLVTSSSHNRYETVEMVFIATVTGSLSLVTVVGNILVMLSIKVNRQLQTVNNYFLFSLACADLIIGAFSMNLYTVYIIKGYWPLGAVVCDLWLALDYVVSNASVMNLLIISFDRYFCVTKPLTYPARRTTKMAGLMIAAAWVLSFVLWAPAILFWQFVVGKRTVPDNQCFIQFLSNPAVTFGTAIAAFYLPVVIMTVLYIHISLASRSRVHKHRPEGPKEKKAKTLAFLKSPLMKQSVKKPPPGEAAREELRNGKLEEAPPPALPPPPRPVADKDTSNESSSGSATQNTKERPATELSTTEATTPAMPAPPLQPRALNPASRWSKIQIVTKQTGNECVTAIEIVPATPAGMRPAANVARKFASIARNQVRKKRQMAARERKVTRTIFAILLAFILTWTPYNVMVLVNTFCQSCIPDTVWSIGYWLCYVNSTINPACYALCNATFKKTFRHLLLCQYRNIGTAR
# TEST_METHOD_NOTES: Alphascreen Surefire phospho-ERK1/2 functional assay, M4
# Format: cell-based
# ASSAY_SETUP: CHO cells stably expressing human M4; agonist 5 min, 37° C.
OUTCOME_MEASURE: pEC50 M4

CCOC(=O)N1C2CCC1CC(N1CC3C(C1)C3C(=O)N(C)CC)C2 (single isomer, unassigned; isomer 2) [7-2 Isomer 2] | 4.96
CCOC(=O)N1C2COCC1CC(N1CC3C(C1)C3C(=O)N(C)C1CC1)C2 (single isomer, unassigned; isomer 1) [10-8 Isomer 1] | 4.84
CCOC(=O)N1C2COCC1CC(N1CC3C(C1)C3C(=O)N1CCOCC1)C2 (single isomer, unassigned; isomer 1) [10-13 Isomer 1] | 5.95
CCOC(=O)N1C2COCC1CC(N1CC3C(C1)C3C(=O)N(CC)C1CC1)C2 (single isomer, unassigned; isomer 2) [10-9 Isomer 2] | 5.47
CCOC(=O)N1C2CCCC1CC(N1CC3C(C1)C3C(=O)N(C)CC)C2 (single isomer, unassigned; isomer 1) [9-1 Isomer 1] | 6.06

---

# STUDY_TARGET: human muscarinic M2 receptor (Homo sapiens)
# Sequence (P08172 1-466): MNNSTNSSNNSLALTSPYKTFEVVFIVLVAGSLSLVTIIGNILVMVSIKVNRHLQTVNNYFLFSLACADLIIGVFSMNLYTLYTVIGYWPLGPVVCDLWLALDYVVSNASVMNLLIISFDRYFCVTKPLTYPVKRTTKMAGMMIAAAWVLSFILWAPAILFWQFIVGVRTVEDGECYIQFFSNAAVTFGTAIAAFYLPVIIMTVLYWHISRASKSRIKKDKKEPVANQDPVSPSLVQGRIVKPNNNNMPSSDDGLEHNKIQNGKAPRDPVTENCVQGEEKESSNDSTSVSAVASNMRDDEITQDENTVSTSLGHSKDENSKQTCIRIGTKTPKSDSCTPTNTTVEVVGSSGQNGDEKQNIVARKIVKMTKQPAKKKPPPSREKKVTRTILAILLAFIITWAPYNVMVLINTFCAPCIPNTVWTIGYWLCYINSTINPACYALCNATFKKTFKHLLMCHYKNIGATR
# TEST_METHOD_NOTES: Alphascreen Surefire phospho-ERK1/2 functional assay, M2
# Assay type: cell-based
# ASSAY_SETUP: CHO cells stably expressing human M2; relative to ACh
OUTCOME_MEASURE: % Emax cf. ACh (M2) (%)

CCOC(=O)N1C2CCCC1CC(N1CC3C(C1)C3C(=O)N(C)CC)C2 (single isomer, unassigned; isomer 1) [9-1 Isomer 1] | 19
CCOC(=O)N1C2COCC1CC(N1CC3C(C1)C3C(=O)N(CC)CC)C2 (single isomer, unassigned; isomer 2) [10-2 Isomer 2] | 25
CCOC(=O)N1C2COCC1CC(N1CC3C(C1)C3C(=O)N1CCOCC1)C2 (single isomer, unassigned; isomer 2) [10-13 Isomer 2] | 24
CCOC(=O)N1C2COCC1CC(N1CC3C(C1)C3C(=O)N1CCOCC1)C2 (single isomer, unassigned; isomer 1) [10-13 Isomer 1] | 24

---

# STUDY_TARGET: human muscarinic M4 receptor (Homo sapiens, UniProt P08173)
# Construct: expressed in transfected cells
# TEST_METHOD_NOTES: Alphascreen Surefire phospho-ERK1/2 functional assay, M4
# Format: cell-based
# ASSAY_SETUP: CHO cells stably expressing human M4; agonist 5 min, 37° C.; read-out: pEC50 M4 (converted)
# Procedure: ERK1/2 phosphorylation is a downstream consequence of both Gq/11 and Gi/o protein coupled receptor activation, making it highly suitable for the assessment of M1, M3 (Gq/11 coupled) and M2, M4 receptors (Gi/o coupled), rather than using different assay formats for different receptor subtypes. CHO cells stably expressing the human muscarinic M1, M2, M3 or M4 receptor were plated (25K/well) onto 96-well tissue culture plates in MEM-alpha+10% dialysed FBS. […]
OUTCOME_MEASURE: EC50 (nM)

a = CCOC(=O)N1CC2(CC(N3C[C@@H]4[C@H](C3)[C@H]4c3csc(C)n3)C2)C1
b = CCOC(=O)N1CCC2(CC(N3CC4C(C3)C4N(CC)CC(F)(F)F)C2)C1 (mixture of isomers) [2-27 Mixture of isomers]
c = CCOC(=O)N1CCC2(CC(N3CC4C(C3)C4C(CC)=NOC)C2)C1 (single isomer, unassigned) [2-25 Isomer 4]
Task: Arrange the 3 entries by EC50 so the values rise. Please list the labels in the order you were asked to rank them.
Result: c, a, b

1 = CCOC(=O)N1CC2(CC(N3C[C@@H]4[C@H](C3)[C@H]4C(=O)N(CC)CC)C2)C1
2 = CCOC(=O)N1CCC2(CC(N3CC4C(C3)C4OC(C)c3ccccc3)C2)C1 (single isomer, unassigned) [2-28 Isomer 2]
3 = CCOC(=O)[C@H]1[C@@H]2CN(C3CC4(C3)CN(C(=O)OCC)C4)C[C@@H]21
4 = CCOC(=O)C1C2CN(C3CC4(CCN(C(=O)OCC)C4)C3)CC21 (mixture of isomers) [2-1 Mixture of isomers]
Task: Given 4 molecules, produce a descending ranking by EC50. Write the labels out in the order the request specifies.
Result: 1, 3, 4, 2
(1: 955 nM, 3: 316 nM, 4: 77.6 nM, 2: 53.7 nM)

A = CCOC(=O)N1CCC2(CC(N3C[C@@H]4[C@H](C3)[C@H]4c3ccnn3C)C2)C1 (single isomer, unassigned) [2-29 Isomer 2]
B = CCOC(=O)N1CCC2(CC(N3CC4C(C3)C4C(=O)N3CCC34CC4)C2)C1 (single isomer, unassigned) [2-19 Isomer 2]
C = CCOC(=O)N1CCC2(CC(N3CC4C(C3)C4C(CC)=NOC)C2)C1 (single isomer, unassigned) [2-25 Isomer 2]
D = CCOC(=O)N1CCC(N2C[C@@H]3[C@H](C2)[C@H]3C(=O)N(CC)CC)CC1
Task: Please list the entries, largest EC50 first. A ranking is expressed here by listing the labels in the requested order.
Result: D, C, A, B

These data points were gathered from patent US10329278B2.
